ASSAY_TEXT: amyloid nucleation score (Sup35N fusion, yeast selection) (log enrichment); library NNK1; higher = more nucleation; inactive = no reads after selection;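 further: zero at mode of non-aggregating sequences after 7 days selection at 30°C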
REPORTED_ENDPOINT: amyloid nucleation score
Please give the numeric answer without any surrounding text.

Worked set:
>  <SUBSTANCE>
IQGNFRDLGRDKHDTEVWHP

>  <amyloid nucleation score>
0.858

$$$$
>  <SUBSTANCE>
DCPFKLPFSTRRR

>  <amyloid nucleation score>
0.05

$$$$
>  <SUBSTANCE>
ACDRMGGVSGPDSAAVWPYI

>  <amyloid nucleation score>
-1.91

$$$$
>  <SUBSTANCE>
LLVSVFTRYFPGNVRVTWGT

>  <amyloid nucleation score>
-0.21

$$$$
>  <SUBSTANCE>
TMVFVCSNYGPSFSLLVC

>  <amyloid nucleation score>
2.83

$$$$
>  <SUBSTANCE>
FGKLYF

>  <amyloid nucleation score>
-0.52

$$$$

The value of amyloid nucleation score measured for the substance NCYLLFFCRLSSLSYAYQVY turned out to be -0.815

Measured amyloid nucleation score of HDGLLVFAFHY : -0.378

GET /value?item= SEYTLLTFKSFGNRAPHFVG &field=amyloid nucleation score returns 1.75

Entry under test: MRVLDTNSGLMTITPFPVHS . Its amyloid nucleation score was -0.574

substance SVCKCKLNERIEKWNYRSIR , amyloid nucleation score observed: 0.227

Measured amyloid nucleation score of VNYPEDPTSKEIIRHSLGTG : -1.13

Notebook: KYPSKSSELSGYEDSRNFVG , amyloid nucleation score read as 0.806
